The measurements presented in this section are drawn from patent US9833497B2.

System: Serratia marcescens
Test: MIC against Gram-negative bacteria: Serratia marcescens
Assay type: cell-based
Details: 10 h cultivation at 37° C., 5×10^5 CFU/mL, two-fold serial dilution
Description: 1. Gram-negative bacteria, such as E. coli BL21, Pseudomonas aeruginosa, Klebsiella pneumonia, Enterobacter cloacae, Aeromonas hydrophila, Citrobacter diversus, Moraxella catarrhalis, Proteus mirabilis, Proteus vulgaris, Serratia marcescens, etc were streaked on solid LB medium and cultured respectively. Then, typical clones were picked, inoculated into common liquid LB medium respectively, and cultured at 37° C. with shaking at 185 rpm until the McFarland specific turbidity was 0.5. […]
assayMetric: MIC S. marcescens (µg/mL)
The reply should be a number in µg/mL, with the unit left off.

Worked examples, 7 substances total:
PRT1082 (GTNPCSVNNGDCSQLCLPTSETTRSCMCTAGYSLRSGQQACE; listed as Homo sapiens) ... 25
PRT1131 (RMPGCQHGTCHQPWQCICHSGWAGKFCD; listed as Homo sapiens) ... 12.5
PRT1126 (DVRACSSAPCANNRTCVSLDDGLYECSCAPGYSGKDCQ; listed as Homo sapiens) ... 50
PRT1116 (DIDECASRPCHHGATCRNLADRYECHCPLGYAGVTCE; listed as Homo sapiens) ... 12.5
PRT1138 (EINECDSDPCMNGGLCHESTIPGQFVCLCPPLYTGQFCH; listed as Homo sapiens) ... 50
PRT1096 (QLNVCNSNPCLHGGNCEDIYSSYHCSCPLGWSGKHCE; listed as Homo sapiens) ... 25
PRT1183 (NIDDCLGQPCRNGGTCIDEVDAFRCFCPSGWEGELCD; listed as Homo sapiens) ... 12.5

Now consider the entry below.
Ask: Return value of MIC S. marcescens for input PRT1149 (APSVCQQDVCHNGGTCHAIFLSSGIVSFQCDCPLHFTGRFCE; listed as Homo sapiens) , no commentary.
Result: 50

---

Test system: Proteus mirabilis
Assay: MIC against Gram-negative bacteria: Proteus mirabilis
Assay type: cell-based
Details: P. mirabilis; 10 h cultivation at 37° C.; 5×10^5 CFU/mL
assayMetric: MIC (µg/mL)
The reply should be a number in µg/mL, with the unit left off.

Worked examples, 5 substances total:
PRT318 (DVDECEKNPCAGGECINNQGSYTCQCRAGYQSTLTRTECR; listed as Homo sapiens) ... 12.5
PRT434 (DVNECATENPCVQTCVNTYGSFICRCDPGYELEEDGVHCS; listed as Homo sapiens) ... 25
PRT423 (QPNTCKDNGPCKQVCSTVGGSAICSCFPGYAIMADGVSCE; listed as Homo sapiens) ... 50
PRT431 (DIDECRTIPEACRGDMMCVNQNGGYLCIPRTNPVYRGPYSN; listed as Homo sapiens) ... 50
PRT428 (DVNECWASPGRLCQHTCENTLGSYRCSCASGFLLAADGKRCE; listed as Homo sapiens) ... 12.5

Ask: Return value of MIC for input PRT440 (DVNECRQNVCRPDQHCKNTRGGYKCIDLCPNGMTKAENGTCI; listed as Homo sapiens) , no commentary.
Result: 25

---

System: E. coli BL21
Assay: MIC against Gram-negative bacteria: E. coli BL21
Assay type: cell-based
Conditions: 10 h cultivation at 37° C., 5×10^5 CFU/mL, two-fold serial dilution
assayMetric: MIC E. coli BL21 (µg/mL)
The reply should be a number in µg/mL, with the unit left off.

PRT1112 (GAPVCAPSPCLHDGACRDLFDAFACACGPGWEGPRCE; listed as Homo sapiens) ... 25
PRT1114 (PSKECSLNVTCLDGSPCEGGSPAANCSCLEGLAGQRCQ; listed as Homo sapiens) ... 12.5
PRT1141 (EINECSSEPCKNNGTCVDLTNRFFCNCEPEYHGPFCE; listed as Homo sapiens) ... 12.5
PRT1083 (GTNVCAVANGGCQQLCLYRGRGQRACACAHGMLAEDGASCR; listed as Homo sapiens) ... 12.5
PRT1109 (EPRGCATQPCHHGALCVPQGPDPTGFRCYCVPGFQGPRCE; listed as Homo sapiens) ... 25

Ask: Find MIC E. coli BL21 for PRT1145 (KINDCTSIPCMNEGFCQKSAHGFTCICPRGYTGAYCE; listed as Homo sapiens) on E. coli BL21 and write it down.
Result: 25

Ask: Find MIC E. coli BL21 for PRT1120 (DEDECASSPCQHGGRCLQRSDPALYGGVQAAFPGAFSFRHAAGFLCHCPPGFEGADCG; listed as Homo sapiens) on E. coli BL21 and write it down.
Result: 12.5

Ask: Find MIC E. coli BL21 for PRT1113 (HVDPCHSAPCARGRCHTHPDGRFECRCPPGFGGPRCR; listed as Homo sapiens) on E. coli BL21 and write it down.
Result: 12.5
